Recorded values, source patent US10538561B2.

- Assay name: Cell viability (MTT assay) in HaCaT
- Type: cell-based, Human
- Measurement parameters: human, HaCaT keratinocytes; HaCaT, 1% FBS, 72 h, 5 μg/ml
Endpoint: cytotoxicity at 72 h, 5 μg/ml (%)
Numeric only. Scale: %

Let me know recorded cytotoxicity at 72 h, 5 μg/ml for H-WVQRVVEKFLK-OH [IS181] , thanks.
-37.5

====

- Assay name: Cell viability (MTT assay) in SK-MEL-28
- Format: cell-based, Human
- Measurement parameters: human, SK-MEL-28 melanoma cells; SK-MEL-28, 24 h, 0.01 μg/ml
- Experimental: Cell Lines/Cells: Human Keratinocytes (HaCaT); Human melanoma (SK-MEL-28); Human PBMCs. Test Item: IS181 Treatment regimen: Single addition—24 h, ^#Multiple additions (3)−72 h; Concentration range: 1 ng/ml-2 mg/ml (triplicate wells); Sera Condition: […] Method of estimation: MTT assay. […] Positive control: Triton-X-100, Doxorubicin Hydrochloride.
Endpoint: cytotoxicity at 24 h, 0.01 μg/ml (%)
Numeric only. Scale: %

Let me know recorded cytotoxicity at 24 h, 0.01 μg/ml for H-WVQRVVEKFLK-OH [IS181] , thanks.
-1.91
